pIC50: −log10 of the molar value.
readout kind: pIC50

System IRAK4 (Homo sapiens (Human)). Read-out pIC50. Item CCC[C@H](N)c1cccc(-c2cc(C3=CCN(C)CC3)c3cnn(-c4cccc(CO)n4)c3c2)n1 [Example 423] . Report value.
> 7.00

Please tell me the measured pIC50 for CCC(N)c1cccc(-c2ccc3cnc(-c4cccc(C)n4)n3c2)n1 (stereo not shown) [Example 275] ; system: IRAK4 (Homo sapiens (Human)).
Sequence (Q9NWZ3 whole entry, species assumed): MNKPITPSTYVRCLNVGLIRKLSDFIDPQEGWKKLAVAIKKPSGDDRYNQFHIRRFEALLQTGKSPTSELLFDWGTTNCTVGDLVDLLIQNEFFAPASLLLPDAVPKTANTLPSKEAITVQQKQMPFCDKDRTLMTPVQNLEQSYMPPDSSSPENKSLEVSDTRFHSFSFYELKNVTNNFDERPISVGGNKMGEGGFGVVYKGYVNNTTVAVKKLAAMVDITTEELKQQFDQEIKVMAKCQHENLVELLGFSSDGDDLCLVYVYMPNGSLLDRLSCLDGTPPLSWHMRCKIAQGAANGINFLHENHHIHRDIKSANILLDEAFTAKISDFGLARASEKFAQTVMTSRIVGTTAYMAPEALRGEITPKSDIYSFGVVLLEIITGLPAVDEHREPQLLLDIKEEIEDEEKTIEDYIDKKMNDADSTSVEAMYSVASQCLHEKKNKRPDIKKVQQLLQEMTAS
> 7.00

Jot down pIC50 (IRAK4 (Homo sapiens (Human))) of CCCC(N)c1cccc(-c2ccc3cnc(-c4cccc(C)n4)n3c2)n1 (stereo not shown) [Example 276] .
> 7.00

Identify measured pIC50 obtained with IRAK4 (Homo sapiens (Human)) for N#Cc1cc(-c2cncc(NC(=O)C(F)(F)F)c2)cc2c1cnn2-c1cccc(C(F)(F)F)n1 [Example 208] .
< 5.00
